# tested.system: human Y4 receptor (Homo sapiens, UniProt P50391)
# Sequence (P50391 whole entry): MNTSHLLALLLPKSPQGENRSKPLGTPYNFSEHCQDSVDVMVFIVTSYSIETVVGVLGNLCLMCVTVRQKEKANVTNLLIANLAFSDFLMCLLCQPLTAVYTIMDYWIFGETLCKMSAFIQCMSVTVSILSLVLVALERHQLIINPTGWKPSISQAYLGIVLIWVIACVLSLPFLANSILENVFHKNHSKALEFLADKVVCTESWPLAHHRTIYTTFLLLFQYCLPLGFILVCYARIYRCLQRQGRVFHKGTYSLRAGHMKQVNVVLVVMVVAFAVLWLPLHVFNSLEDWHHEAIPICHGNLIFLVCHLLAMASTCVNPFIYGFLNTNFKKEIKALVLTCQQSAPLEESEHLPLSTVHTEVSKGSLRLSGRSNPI
# Format: binding
# study.conditions: read-out: Binding Affinity (Ki (nM) vs. ^125I-PYY) Human Receptor Y4; Table 14
Ki strictly less than 20000 nM = label 1. Otherwise label 0.

- Cl.O=S(=O)(NC[C@H]1CC[C@H](CNCC2CCc3ccccc3C2)CC1)c1cccc2ccccc12 (stereo partly drawn): label 1
- Cl.Cl.Nc1ccccc1S(=O)(=O)NCC1CCC(CNCC2CCc3ccccc3C2)CC1 (stereo not drawn): label 0
- Cl.O=S(=O)(NCC1CCC(CNCc2cccc3ccccc23)CC1)c1ccccc1C(F)(F)F (stereo not drawn): label 0
- Cl.O=S(=O)(NCC1CCC(CNCc2ccc3ccccc3c2)CC1)c1ccccc1C(F)(F)F (stereo not drawn): label 1
- Cl.Cl.O=[N+]([O-])c1ccccc1S(=O)(=O)NCC1CCC(CNCc2ccc3ccccc3n2)CC1 (stereo not drawn): label 1
